src = patent US20160002357A1

- TESTED ON: T1, P-cadherin-ECD1-3-Fc protein (human P-cadherin-Fc) (human, UniProt P22223 108-440)
- T1 construct: Construct was expressed with signal peptide and pro-peptide (PACE co-transfected to process the propeptide); not shown: hinge and CH2 and CH3 domains of human IgG1
- T1 sequence (P22223 108-440): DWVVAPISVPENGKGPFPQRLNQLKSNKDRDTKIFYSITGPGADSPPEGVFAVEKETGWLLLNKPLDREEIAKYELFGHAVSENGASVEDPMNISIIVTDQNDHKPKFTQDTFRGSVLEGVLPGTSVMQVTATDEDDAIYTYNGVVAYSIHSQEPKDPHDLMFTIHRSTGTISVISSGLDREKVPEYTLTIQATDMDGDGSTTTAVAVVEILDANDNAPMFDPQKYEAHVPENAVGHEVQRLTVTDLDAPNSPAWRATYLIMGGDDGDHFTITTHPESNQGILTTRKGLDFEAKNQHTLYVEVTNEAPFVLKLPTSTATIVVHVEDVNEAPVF
- RUN DESCRIPTION: phage scFv ELISA, coated P-cadherin-ECD1-3-Fc
- Description: ScFvs may be expressed on the surface of a phage particle. […] P-cadherin-ECD1-3-Fc protein or negative control protein was coated overnight at 4° C. on 96-well Nunc Maxisorp® plates (Thermo Fisher Scientific, Madison, Conn.) at a concentration of 2 μg/mL in PBS+Ca²⁺ and Mg²⁺. […] Signal was developed using TMB (SurModics, Eden Prairie, Minn.), the reaction stopped with H₂SO₄ and the absorbance read at 450 nm on an EnVision® plate reader (Perkin Elmer, Waltham, Mass.).
Would you mind labelling by Human P-cadherin-Fc binding (OD450)? At or over 2 OD450 is yes (1), under is no (0).

[[record]]
binder = "anti-P-cadherin scFv 153 alanine-mutant L2.1-Ala (scFv, V domains shown, scFv on phage) VH: EVQLVQSGAEVKKPGASVKVSCKASGYTFTSYGISWVRQAPGQGLEWMGWISAYNGNTNYAQKLQGRVTMTTDTSTSTAYMELRSLRSDDTAVYYCATIDTANAFGIWGQGTMVTVSS VL: QSVLTQPPSVSAAPGQKVTISCSGSSSNIGNNYVSWYQQLPGTAPKLLIYANNKRPSGIPDRFSGSKSGTSATLGITGLQTGDEADYYCGTWDSSLSGVVFGGGTKLTVL"
assigned_label = "no (0)"

[[record]]
binder = "anti-P-cadherin scFv 153 alanine-mutant L3.8-Ala (scFv, V domains shown, scFv on phage) VH: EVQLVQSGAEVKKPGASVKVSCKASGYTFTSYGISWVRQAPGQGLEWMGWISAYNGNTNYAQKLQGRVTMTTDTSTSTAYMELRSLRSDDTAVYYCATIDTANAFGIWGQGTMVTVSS VL: QSVLTQPPSVSAAPGQKVTISCSGSSSNIGNNYVSWYQQLPGTAPKLLIYDNNKRPSGIPDRFSGSKSGTSATLGITGLQTGDEADYYCGTWDSSLAGVVFGGGTKLTVL"
assigned_label = "yes (1)"

[[record]]
binder = "anti-P-cadherin scFv 153 alanine-mutant L2.2-Ala (scFv, V domains shown, scFv on phage) VH: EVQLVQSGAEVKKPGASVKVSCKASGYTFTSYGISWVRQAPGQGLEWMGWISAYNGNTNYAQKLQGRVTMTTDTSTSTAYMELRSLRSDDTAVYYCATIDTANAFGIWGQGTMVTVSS VL: QSVLTQPPSVSAAPGQKVTISCSGSSSNIGNNYVSWYQQLPGTAPKLLIYDANKRPSGIPDRFSGSKSGTSATLGITGLQTGDEADYYCGTWDSSLSGVVFGGGTKLTVL"
assigned_label = "no (0)"

[[record]]
binder = "anti-P-cadherin scFv 153 alanine-mutant L2.6-Ala (scFv, V domains shown, scFv on phage) VH: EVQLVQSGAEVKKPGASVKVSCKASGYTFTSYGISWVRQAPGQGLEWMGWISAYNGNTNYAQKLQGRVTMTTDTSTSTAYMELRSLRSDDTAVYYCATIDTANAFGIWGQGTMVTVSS VL: QSVLTQPPSVSAAPGQKVTISCSGSSSNIGNNYVSWYQQLPGTAPKLLIYDNNKRASGIPDRFSGSKSGTSATLGITGLQTGDEADYYCGTWDSSLSGVVFGGGTKLTVL"
assigned_label = "yes (1)"

[[record]]
binder = "anti-P-cadherin scFv 153 alanine-mutant L2.7-Ala (scFv, V domains shown, scFv on phage) VH: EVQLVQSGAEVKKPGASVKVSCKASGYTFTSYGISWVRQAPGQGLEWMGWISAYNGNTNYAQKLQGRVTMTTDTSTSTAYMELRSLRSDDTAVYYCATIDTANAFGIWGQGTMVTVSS VL: QSVLTQPPSVSAAPGQKVTISCSGSSSNIGNNYVSWYQQLPGTAPKLLIYDNNKRPAGIPDRFSGSKSGTSATLGITGLQTGDEADYYCGTWDSSLSGVVFGGGTKLTVL"
assigned_label = "yes (1)"


Q: Does anti-P-cadherin scFv 153 alanine-mutant L1.1-Ala (scFv, V domains shown, scFv on phage) VH: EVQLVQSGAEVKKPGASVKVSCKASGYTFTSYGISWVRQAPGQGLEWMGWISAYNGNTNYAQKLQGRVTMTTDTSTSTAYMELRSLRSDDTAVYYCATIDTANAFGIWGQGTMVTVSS VL: QSVLTQPPSVSAAPGQKVTISCAGSSSNIGNNYVSWYQQLPGTAPKLLIYDNNKRPSGIPDRFSGSKSGTSATLGITGLQTGDEADYYCGTWDSSLSGVVFGGGTKLTVL have a reported Human P-cadherin-Fc binding (OD450) of at least 2 OD450?
A: yes (1)

Q: Has anti-P-cadherin scFv 153 alanine-mutant L1.10-Ala (scFv, V domains shown, scFv on phage) VH: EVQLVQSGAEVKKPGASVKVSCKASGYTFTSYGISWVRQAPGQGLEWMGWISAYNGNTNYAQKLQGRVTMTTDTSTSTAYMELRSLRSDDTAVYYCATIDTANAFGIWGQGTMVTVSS VL: QSVLTQPPSVSAAPGQKVTISCSGSSSNIGNAYVSWYQQLPGTAPKLLIYDNNKRPSGIPDRFSGSKSGTSATLGITGLQTGDEADYYCGTWDSSLSGVVFGGGTKLTVL a recorded Human P-cadherin-Fc binding (OD450) greater than or equal to 2 OD450?
A: no (0)

Q: State whether the measured Human P-cadherin-Fc binding (OD450) reaches 2 OD450, counting equality as reaching it, for anti-P-cadherin scFv 153 alanine-mutant L3.9-Ala (scFv, V domains shown, scFv on phage) VH: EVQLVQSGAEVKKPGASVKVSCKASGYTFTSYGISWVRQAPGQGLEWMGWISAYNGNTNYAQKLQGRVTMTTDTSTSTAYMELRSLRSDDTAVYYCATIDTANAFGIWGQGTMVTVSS VL: QSVLTQPPSVSAAPGQKVTISCSGSSSNIGNNYVSWYQQLPGTAPKLLIYDNNKRPSGIPDRFSGSKSGTSATLGITGLQTGDEADYYCGTWDSSLSAVVFGGGTKLTVL
A: yes (1)

Q: Answer whether Human P-cadherin-Fc binding (OD450) of anti-P-cadherin scFv 153 alanine-mutant L3.5-Ala (scFv, V domains shown, scFv on phage) VH: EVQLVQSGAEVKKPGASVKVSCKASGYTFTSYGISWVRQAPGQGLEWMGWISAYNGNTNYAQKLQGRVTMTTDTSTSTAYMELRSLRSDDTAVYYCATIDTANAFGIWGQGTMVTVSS VL: QSVLTQPPSVSAAPGQKVTISCSGSSSNIGNNYVSWYQQLPGTAPKLLIYDNNKRPSGIPDRFSGSKSGTSATLGITGLQTGDEADYYCGTWDASLSGVVFGGGTKLTVL is greater than or equal to 2 OD450.
A: yes (1)

Q: Confirm if Human P-cadherin-Fc binding (OD450) reported for the binder anti-P-cadherin scFv 153 alanine-mutant L2.5-Ala (scFv, V domains shown, scFv on phage) VH: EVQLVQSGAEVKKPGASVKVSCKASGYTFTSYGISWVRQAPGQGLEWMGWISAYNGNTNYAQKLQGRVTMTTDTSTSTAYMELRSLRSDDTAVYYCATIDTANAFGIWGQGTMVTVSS VL: QSVLTQPPSVSAAPGQKVTISCSGSSSNIGNNYVSWYQQLPGTAPKLLIYDNNKAPSGIPDRFSGSKSGTSATLGITGLQTGDEADYYCGTWDSSLSGVVFGGGTKLTVL is 2 OD450 or above.
A: yes (1)
